meta.source: patent US7166622B2

# System: beta amyloid production
# TEST METHOD NOTES: Repressor Release Assay (RRA)
# Assay type: cell-based
# CONDITION SUMMARY: Conc 20 μg/ml; luciferase activity over diluent control; read-out: APPI Fold Increase
Returns Criterion met if the recorded fold induction at 20 µg/mL is greater than or equal to 2, and Criterion not met otherwise.

>>> classification("CSc1ccc([C@H](O)[C@H](CO)NS(=O)(=O)c2ccccc2F)cc1 [Example 116]")
"Criterion not met"
>>> classification("CC[C@H](C)[C@@H](CO)N(CCSC)S(=O)(=O)c1ccc(Cl)cc1 [Example 47]")
"Criterion met"
>>> classification("C[C@@H](NS(=O)(=O)c1ccc(Cl)cc1)[C@@H](O)c1ccccc1 [Example 93]")
"Criterion not met"
>>> classification("O=S(=O)(N[C@H](CO)c1ccccc1)c1ccc(Cl)cc1 [Example 273]")
"Criterion not met"
>>> classification("CC(C)C[C@@H](CO)NS(=O)(=O)c1ccc(Br)cc1 [Example 18]")
"Criterion not met"
>>> classification("CC[C@H](C)[C@@H](CO)NS(=O)(=O)c1ccc(Cl)c(Cl)c1 [Example 24]")
"Criterion not met"
>>> classification("CC[C@H](C)[C@@H](CO)N(C)S(=O)(=O)c1ccc(Cl)cc1 [Example 90]")
"Criterion not met"
>>> classification("CC[C@H](C)[C@@H](CO)NS(=O)(=O)c1ccc(F)cc1Cl [Example 5]")
"Criterion met"
>>> classification("CC[C@H](C)[C@@H](CO)NS(=O)(=O)c1cccc(Br)c1 [Example 2]")
"Criterion met"
>>> classification("CC(c1ccccc1)C(CO)NS(=O)(=O)c1ccc(Br)cc1 (stereo not shown) [Example 35]")
"Criterion met"
>>> classification("CC(C)(C)[C@@H](CO)NS(=O)(=O)c1ccc(Cl)c(Cl)c1 [Example 30]")
"Criterion met"
>>> classification("O=S(=O)(NC1(CO)CCCCC1)c1ccc(Br)cc1 [Example 120]")
"Criterion met"
>>> classification("CC(C)[C@@H](CO)NS(=O)(=O)c1ccc(Cl)cc1 [Example 274]")
"Criterion met"
>>> classification("CC[C@H](C)[C@@H](CO)NS(=O)(=O)c1cc(Cl)c(Cl)cc1Cl [Example 25]")
"Criterion not met"
>>> classification("CC(C)[C@@](C)(CO)NS(=O)(=O)c1ccc(Cl)cc1 [Example 37]")
"Criterion met"
>>> classification("CC[C@H](C)[C@@H](CO)N(Cc1ccc(Cl)cc1)S(=O)(=O)c1ccc(Cl)cc1 [Example 43]")
"Criterion met"
>>> classification("CC(c1ccccc1)C(CO)NS(=O)(=O)c1ccc(Cl)cc1 (stereo not shown) [Example 38]")
"Criterion met"
>>> classification("CC(C)(C)[C@@H](CO)NS(=O)(=O)c1c(Cl)cc(Cl)cc1Cl [Example 32]")
"Criterion met"
>>> classification("CC[C@@H](C)[C@H](CO)NS(=O)(=O)c1ccc(Br)cc1 [Example 33]")
"Criterion met"
